Cited source for all entries: paper PMC5700166

- Target: GST-Nv-NF-kB (Ser allele) (Nematostella vectensis, UniProt A7UNT2 2-411)
- Sequence: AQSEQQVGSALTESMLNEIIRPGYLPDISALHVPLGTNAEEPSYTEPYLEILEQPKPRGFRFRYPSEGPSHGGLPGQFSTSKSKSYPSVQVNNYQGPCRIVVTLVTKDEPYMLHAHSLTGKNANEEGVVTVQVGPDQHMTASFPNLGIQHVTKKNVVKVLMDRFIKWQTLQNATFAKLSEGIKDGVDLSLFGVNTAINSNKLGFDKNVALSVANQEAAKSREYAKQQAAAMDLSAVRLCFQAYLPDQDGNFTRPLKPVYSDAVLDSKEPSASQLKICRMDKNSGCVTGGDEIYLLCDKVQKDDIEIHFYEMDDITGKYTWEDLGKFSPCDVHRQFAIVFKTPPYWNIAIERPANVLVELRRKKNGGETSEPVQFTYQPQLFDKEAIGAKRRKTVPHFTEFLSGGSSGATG
- Test Protocol: protein-binding microarray (PBM); PBM: ~300 nM protein, 6 mM HEPES pH 7.8, 80 mM KCl, 0.5 mM EDTA, 0.5 mM EGTA, 6% glycerol, 35 ng/ul poly-dIdC, 1% milk, 1 h, room temperature; Ap Aiptasia and Nv Nematostella (sea anemones) / Co Capsaspora / Aq Amphimedon (sponge) / Dm Drosophila / Hu human; RHD is the Rel homology domain; high values mean tight binding
- Measurement Conditions: dsDNA, one strand shown
Values of binding signal strictly less than 5 z-score map to met, and values of at least 5 z-score map to not met.

In the record for CCGATTAACATCAAGGATCCCCCTGATGTTAATCGGGTCTTGATTCGCTTGACGCTGCTG , is binding signal less than 5 z-score?
not met
